viscosity overview
- condition description: 308.15 K; 100 kPa; Liquid; Concentric cylinders viscometry
± gives the expanded uncertainty stated by the source.

Worked examples follow.
[
  {
    "molecule": "CCC(C)O (centres undefined)",
    "result value": "2.13 ± 0.09 mPa·s"
  },
  {
    "molecule": "CC(C)O",
    "result value": "1.56 ± 0.06 mPa·s"
  },
  {
    "molecule": "CCCC(C)O (centres undefined)",
    "result value": "2.37 ± 0.1 mPa·s"
  }
]

Report measured viscosity; entry is O=Cc1ccccc1 1.22 ± 0.05 mPa·s

* * *

mass density overview
- condition description: 318.15 K; 100 kPa; Liquid; Vibrating tube method
Give your result in kg/m3 as a bare value.

[
  {
    "compound": "O=Cc1ccccc1 [benzaldehyde]",
    "result value": 1023.4
  },
  {
    "compound": "CCCC(C)O (centres undefined) [pentan-2-ol]",
    "result value": 788.4
  },
  {
    "compound": "CC(C)O [propan-2-ol]",
    "result value": 763.4
  }
]

Now look at this entry.
Report measured mass density; entry is CCC(C)O (centres undefined) [butan-2-ol] 785.2

* * *

- condition description: 308.15 K; 100 kPa; Liquid; Vibrating tube method
outcome measure: mass density (kg/m3)
Give your result in kg/m3 as a bare value.

[
  {
    "molecule": "O=Cc1ccccc1",
    "readout unit": "kg/m3",
    "mass density": 1032.4
  },
  {
    "molecule": "CCC(C)O (centres undefined)",
    "readout unit": "kg/m3",
    "mass density": 794.1
  }
]

Report measured mass density; entry is CCCC(C)O (centres undefined) 797

Report measured mass density; entry is CC(C)O 772.4

* * *

mass density overview
- condition description: 293.15 K; 100 kPa; Liquid; Vibrating tube method
Give your result in kg/m3 as a bare value.

[
  {
    "molecule": "CC(C)O",
    "readout unit": "kg/m3",
    "mass density": 785.4
  }
]

Report measured mass density; entry is O=Cc1ccccc1 1046.3

Report measured mass density; entry is CCC(C)O (centres undefined) 806.7

Report measured mass density; entry is CCCC(C)O (centres undefined) 809.3

* * *

- condition description: 313.15 K; 100 kPa; Liquid; Concentric cylinders viscometry
viscosity overview
Give your result in mPa·s as a bare value.

Worked examples follow.
[
  {
    "compound": "CCC(C)O (centres undefined)",
    "viscosity / mPa·s": 1.8
  },
  {
    "compound": "CC(C)O",
    "viscosity / mPa·s": 1.36
  },
  {
    "compound": "CCCC(C)O (centres undefined)",
    "viscosity / mPa·s": 1.99
  }
]

Report measured viscosity; entry is O=Cc1ccccc1 1.15

* * *

viscosity overview
- condition description: 318.15 K; 100 kPa; Liquid; Concentric cylinders viscometry
± gives the expanded uncertainty stated by the source.
Just the number plus its unit, please.

[
  {
    "compound": "CC(C)O",
    "viscosity": "1.19 ± 0.05 mPa·s"
  },
  {
    "compound": "CCC(C)O (centres undefined)",
    "viscosity": "1.54 ± 0.06 mPa·s"
  },
  {
    "compound": "CCCC(C)O (centres undefined)",
    "viscosity": "1.66 ± 0.07 mPa·s"
  }
]

Now look at this entry.
Report measured viscosity; entry is O=Cc1ccccc1 1.09 ± 0.04 mPa·s

The measured values listed here are drawn from the NIST ThermoML archive (doi:10.1021/acs.jced.7b00335).
